// values below are reported Toxicity determination Apis cernan Mortality (%)
system: Apis cernan; experiment: Toxicity test on adult worker bees of Apis cernan, small beaker method; assay type: in vivo; conditions: 500 ppm, 48 hours
Numbers only; they are read as %.

Example cases with answers are listed next.
| compound | value unit | reported measurement |
| --- | --- | --- |
| C=CC1(C=C)Nc2c(-c3cc(C)sc3C)c(CC)nn2-c2c(Cl)cc(C(F)(F)F)cc21 | % | 11 |
| CC1(C)Nc2c(Br)c(C(=O)N3CCCCC3)nn2-c2ccccc21 | % | 6 |
| N#CCC1(C(N)=O)Nc2c([S+]([O-])C(F)(F)F)c(C#N)nn2-c2c(Cl)cc(C(F)(F)F)cc21 (stereo not shown) | % | 9 |
| N#Cc1nn2c(c1[S+]([O-])C(F)(F)F)NC(CC(N)=O)(C(N)=O)c1cc(C(F)(F)F)cc(Cl)c1-2 (stereo not shown) | % | 0 |
| N#Cc1cnn2c1NC(F)(CN)c1ccc(Cl)cc1-2 (stereo not shown) | % | 3 |
| N#CCC1(CO)Nc2c([S+]([O-])C(F)(F)F)c(C#N)nn2-c2c(Cl)cc(C(F)(F)F)cc21 (stereo not shown) | % | 10 |

Now consider the entry below.
Task: I'd like to know its Toxicity determination Apis cernan Mortality (%). The compound in question is C=CC1(CC(F)(F)F)Nc2c([S+]([O-])C(F)(F)F)c(C#N)nn2-c2c(Cl)cc(C(F)(F)F)cc21 (stereo not shown)
Result: 10

---

tested on: Aphis craccivora; assay: whole plant or invertebrate; type: in vivo; conditions: 500 ppm; wingless adults; impregnation method; 24 hours
Measured Aphis craccivora Mortality (%) 500 ppm by item

Some entries whose results are on file:
| molecule | Aphis craccivora Mortality (%) 500 ppm |
| --- | --- |
| C[S+]([O-])c1nn2c(c1C#N)NC(F)(C(F)(F)F)c1ccccc1-2 (centres unmarked) | 100% |
| COC(=O)CC1(C(=O)OC)Nc2c(Cl)c(C#N)nn2-c2ncc(C(F)(F)F)cc21 (centres unmarked) | 100% |
| CC(=O)CC1(C(=O)C(F)(F)F)Nc2c([S+]([O-])C(F)(F)F)c(C#N)nn2-c2ncc(C(F)(F)F)cc21 (centres unmarked) | 100% |
| N#Cc1nn2c(c1[S+]([O-])C(F)(F)F)NC(C#N)(C#N)c1cc(C(F)(F)F)cnc1-2 (centres unmarked) | 91% |
| N#Cc1nn2c(c1[S+]([O-])C(F)(F)F)NC(Cc1ccccc1)(C(=O)C(F)(F)F)c1cc(C(F)(F)F)cnc1-2 (centres unmarked) | 100% |

Task: Notebook entry, Aphis craccivora assay: Aphis craccivora Mortality (%) 500 ppm of N#Cc1nn2c(c1[S+]([O-])C(F)(F)F)NC(C#N)(CC(=O)C(F)(F)F)c1cc(C(F)(F)F)cnc1-2 (centres unmarked) = ?
Result: 100%

Task: Consider next the molecule COC(=O)C1Nc2c([S+]([O-])C(F)(F)F)c(C#N)nn2-c2ncc(C(F)(F)F)cc21 (centres unmarked) in the same way.
Result: 100%

Task: Do the same for N#CCC1(C(F)(F)F)Nc2c([S+]([O-])C(F)(F)F)c(C#N)nn2-c2ncc(C(F)(F)F)cc21 (centres unmarked) please
Result: 100%

---

system: Bombyx mori L.; assay: Toxicity test on 2nd-instar larvae of Bombyx mori L., leaf immersion feeding method; type: in vivo; conditions: 1000 ppm, 24 hours
List of Toxicity determination Bombyx mori L. Mortality (%) values.
Respond with the bare value in %.

Recorded results for 6 molecules are shown here.
| molecule | reported measurement |
| --- | --- |
| COC(=O)CC1(C(=O)OC)c2cc(C(F)(F)F)cc(Cl)c2-n2nc(C#N)c([S+]([O-])C(F)(F)F)c2N1C(C)=O (stereo not shown) [Compound C40] | 4 |
| C=CC1(C=C)Nc2c(-c3cc(C)sc3C)c(CC)nn2-c2c(Cl)cc(C(F)(F)F)cc21 [Compound C62] | 10 |
| CCOC(=O)c1c(SC)nn2c1NC(F)(C(F)(F)F)c1ccccc1-2 (stereo not shown) [Compound A27] | 10 |
| CNC(=O)C1(CC(=O)OC)Nc2c([S+](C)[O-])c(C(C)=O)nn2-c2c(Cl)cc(C(F)(F)F)cc21 (stereo not shown) [Compound C46] | 5 |
| CN(C)CC1(CC#N)Nc2c([S+]([O-])C(F)(F)F)c(C#N)nn2-c2c(Cl)cc(C(F)(F)F)cc21 (stereo not shown) [Compound C29] | 0 |
| Nc1ccc2c(c1)-n1nc(C(F)(F)F)cc1NC2(C(F)(F)F)C(F)(F)F [Compound A10] | 15 |

Lab note: next molecule to report on.
Task: Give its Toxicity determination Bombyx mori L. Mortality (%) value. Item: C=CC1(CC(F)(F)F)Nc2cc(C#N)nn2-c2c(Cl)cc(C(F)(F)F)cc21 (stereo not shown) [Compound C2]
Result: 5

---

System: Solenopsis invicta
Assay: whole plant or invertebrate
Format: in vivo
Details: 100 ppm; 72 h; water test tube poison-feeding
Source text: (4) Insecticidal Activity on Solenopsis invicta. As a hymenoptera pests and a social insect, Solenopsis invicta is one of the most destructive invasive organisms. Solenopsis invicta were used as test objects and tested by using a water test tube poison-feeding method. […]
Overview of recorded Solenopsis invicta Mortality (%) 72 h for various molecules
Give just the numeric value; % need not be written.

| molecule | measurement target | Solenopsis invicta Mortality (%) 72 h |
| --- | --- | --- |
| N#CCC1Nc2c([S+]([O-])C(F)(F)F)c(C#N)nn2-c2cncc(Cl)c21 (stereo not drawn) | Solenopsis invicta | 90 |

Task: Request the reported Solenopsis invicta Mortality (%) 72 h associated with N#Cc1nn2c(c1OC(F)(F)F)NC(CC(=O)C(F)(F)F)c1c(Cl)cncc1-2 (stereo not drawn)
Result: 100

Task: Record: N#CCC1(Cl)Nc2c([S+]([O-])C(F)(F)F)c(C#N)nn2-c2cncc(Cl)c21 (stereo not drawn)
Result: 90

Task: Also check CC=CC1Nc2c([S+]([O-])C(F)(F)F)c(C(F)(F)F)nn2-c2c(Cl)cc(C(F)(F)F)cc21 (stereo not drawn)
Result: 83

Task: Input N#Cc1nn2c(c1[S+]([O-])C(F)(F)F)NC(CC(=O)C(F)(F)F)(C(=O)C(F)(F)F)c1cc(C(F)(F)F)cc(Cl)c1-2 (stereo not drawn)
Result: 93

Task: Another molecule to check: COC(=O)C(C)C1Nc2c([S+]([O-])C(F)(F)F)c(C#N)nn2-c2cncc(Cl)c21 (stereo not drawn)
Result: 97

Task: Now give it for COC(=O)CC1(C(=O)OC)Nc2c([S+]([O-])C(F)(F)F)c(C#N)nn2-c2c1ccc(Cl)c2C(F)(F)F (stereo not drawn) too.
Result: 100

---

tested on: Solenopsis invicta; assay: whole plant or invertebrate; type: in vivo; conditions: 100 ppm; 72 h; water test tube poison-feeding
# Solenopsis invicta Mortality (%) 100 ppm 72 h per entry
Numeric only. Scale: %

| compound | value unit | reported measurement |
| --- | --- | --- |
| N#CC1Nc2c([S+]([O-])C(F)(F)F)c(C(F)(F)F)nn2-c2ncc(C(F)(F)F)cc21 (stereo not drawn) | % | 92 |

Could you now look at the following compound, please?
Task: // query Solenopsis invicta Mortality (%) 100 ppm 72 h value for entry N#Cc1nn2c(c1[S+]([O-])C(F)(F)F)NC(CC(=O)C(F)(F)F)(C(F)(F)F)c1cc(C(F)(F)F)cnc1-2 (stereo not drawn)
Result: 100

---

system: Aphis craccivora; assay: whole plant or invertebrate; type: in vivo; conditions: 500 ppm; wingless adults, immersion 5 seconds, counted after 24 hours
recorded endpoint: Aphis craccivora Mortality (%)
Reply numerically in %, unit not repeated.

Examples from the recorded data:
| compound | recorded endpoint | reported measurement |
| --- | --- | --- |
| CCOC(=O)CC1(C(=O)OCC)Nc2c([S+]([O-])C(F)(F)F)c(C#N)nn2-c2c(C(F)(F)F)ccc(Cl)c21 (stereo not shown) | Aphis craccivora Mortality (%) | 100 |
| COC(=O)C(C)C1Nc2c(OC(F)(F)F)c(C#N)nn2-c2c(Cl)cc(C(F)(F)F)cc21 (stereo not shown) | Aphis craccivora Mortality (%) | 90 |

Task: # lookup: Aphis craccivora Mortality (%) of O=C(CC1Nc2c([S+]([O-])C(F)(F)F)c(C(F)(F)F)nn2-c2c(Cl)cc(C(F)(F)F)cc21)C(F)(F)F (stereo not shown)
Result: 100

Task: Follow-up entry: CNC(=O)C1Nc2c([S+]([O-])C(F)(F)F)c(C(F)(F)F)nn2-c2c(Cl)cc(C(F)(F)F)cc21 (stereo not shown)
Result: 99

---

List of Spodoptera exigua Mortality (%) values.
tested on: Spodoptera exigua; assay: whole plant or invertebrate; type: in vivo; details: 500 ppm; 2nd-instar larvae, leaf immersion feeding
The answer is to be given in %; state only the numeric part.

| molecule | reported measurement |
| --- | --- |
| N#Cc1nn2c(c1[S+]([O-])C(F)(F)F)NC(Cl)(CC(F)(F)F)c1c(Cl)cncc1-2 (stereo not shown) [b-48] | 89 |

Task: I am curious: what Spodoptera exigua Mortality (%) value has been reported for COC(=O)C1(CBr)Nc2c([S+]([O-])C(F)(F)F)c(C#N)nn2-c2c(Cl)cc(C(F)(F)F)cc21 (stereo not drawn) [d-34] ?
Result: 95

Task: Check COC(=O)CC1(C(=O)OC)Nc2c([S+](C)[O-])c(C#N)nn2-c2c(Cl)cc(C(F)(F)F)cc21 (stereo not drawn) [d-13] too.
Result: 81

Task: And then COC(=O)CC1Nc2c(OC(F)(F)F)c(C#N)nn2-c2cncc(Cl)c21 (stereo not shown) [b-111] , what is it?
Result: 100
